System: CAKI-1 renal
TEST_DETAILS: NCI tumour cell line growth inhibition, 48 h
Task for the reader: assign each of the following molecules its reported TGI.

MOLECULE	TESTED_TARGET	VALUE_KIND	OBS_VALUE
CN1C[C@H]2[C@@H](C1=O)[C@H](c1ccc([N+](=O)[O-])cc1)ON2C	CAKI-1 renal	TGI	> 100 µM
CN(C)CCCc1cccnc1	CAKI-1 renal	TGI	> 100 µM
O=c1[nH]c(=O)n(C2CC(O)C(COP(=O)(O)OC3CC(n4cc(F)c(=O)[nH]c4=O)OC3COP(=O)(O)OC3CC(n4cc(F)c(=O)[nH]c4=O)OC3COP(=O)(O)OC3CC(n4cc(F)c(=O)[nH]c4=O)OC3COP(=O)(O)OC3CC(n4cc(F)c(=O)[nH]c4=O)OC3COP(=O)(O)OC3CC(n4cc(F)c(=O)[nH]c4=O)OC3COP(=O)(O)OC3CC(n4cc(F)c(=O)[nH]c4=O)OC3COP(=O)(O)OC3CC(n4cc(F)c(=O)[nH]c4=O)OC3COP(=O)(O)OC3CC(n4cc(F)c(=O)[nH]c4=O)OC3COP(=O)(O)OC3CC(n4cc(F)c(=O)[nH]c4=O)OC3CO)O2)cc1F (stereo unspecified)	CAKI-1 renal	TGI	> 50 µM
COc1ccc(C2=NN(C(=O)c3ccccc3)C(O)(c3cc(F)c(Cl)cc3Cl)C2)cc1OC (stereo unspecified)	CAKI-1 renal	TGI	> 100 µM
CC(C)=CCC[C@](C)(O)[C@H]1CC[C@]2(C)[C@@H]1[C@H](O)C[C@@H]1[C@@]3(C)CC[C@H](O[C@@H]4O[C@H](CO)[C@@H](O)[C@H](O)[C@H]4O)C(C)(C)[C@@H]3CC[C@]12C	CAKI-1 renal	TGI	34.2 µM

Switching to the query record.
IN: # input molecule: OC(c1ccc(F)cc1)C(F)(F)c1nc(-c2ccccc2)no1 (stereo unspecified) ; wanted: its TGI
OUT: 72.1 µM
